- tested.target: T1, human ferroportin (SLC40A1) fused with GFP, stably expressed in HEK293 cells (human, UniProt Q9NP59 1-571)
- T1 sequence (looked up): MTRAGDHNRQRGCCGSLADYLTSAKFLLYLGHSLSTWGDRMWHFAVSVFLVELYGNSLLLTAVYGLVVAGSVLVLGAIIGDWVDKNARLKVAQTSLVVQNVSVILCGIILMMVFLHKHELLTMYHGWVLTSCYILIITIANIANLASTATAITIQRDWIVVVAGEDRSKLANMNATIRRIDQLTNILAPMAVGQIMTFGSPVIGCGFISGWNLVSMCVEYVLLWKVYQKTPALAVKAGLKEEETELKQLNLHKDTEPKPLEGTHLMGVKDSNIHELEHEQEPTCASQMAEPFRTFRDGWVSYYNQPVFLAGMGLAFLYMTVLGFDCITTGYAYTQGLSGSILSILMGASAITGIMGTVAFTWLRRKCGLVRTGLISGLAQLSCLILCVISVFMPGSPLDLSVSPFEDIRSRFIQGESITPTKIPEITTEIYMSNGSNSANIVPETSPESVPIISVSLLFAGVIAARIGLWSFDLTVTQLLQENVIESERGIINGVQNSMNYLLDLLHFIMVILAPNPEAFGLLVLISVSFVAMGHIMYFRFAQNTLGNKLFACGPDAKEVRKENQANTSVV
- assay.protocol: cell-based or functional assay
Positions of bridges follow the written chain, without caps; N, C: chain ends. Non-standard residues stand in square brackets, D forms with d. Groups on a side chain read outwards from the residue. Primed or numbered codes have the meaning given here. *: point of attachment. PEG12 = NCCOCCOCCOCCOCCOCCOCCOCCOCCOCCOCCOCCOCCC(=O)O; Dip = N[C@H](C(=O)O)C(c1ccccc1)c1ccccc1; Palmitoyl = CCCCCCCCCCCCCCCC(=O)*; Isovaleryl = CC(C)CC(=O)*; PEG8′ = not defined here; Npc = nipecotic acid
measurement.kind: FPN IC50 (nM)

Guide cases for FPN IC50, answers given:
- binder: "DTHXPCIKFKXX (Isovaleric acid-DTH-[Dpa]-PCI-[(D)Lys]-F-[Lys(Peg11-Palm)]-[Dap]-[Hcy]-NH2) [Compd ID 143]"
  measurement.kind: "FPN IC50"
  value.measured: 18
- binder: "Isovaleryl-DTHFPCI[dK]FK([PEG12-Palmitoyl])PRSKC-NH2 (disulfide 6-15 (inferred)) [Compd ID 73]"
  measurement.kind: "FPN IC50"
  value.measured: 11
- binder: "DTHFPCIKFKPC (Isovaleric acid-DTHFPC(SH)I-[Lys]-[Phe]-Lys[PEG11-Palm]-Pro-C(SH)-NH2) [Compd ID 67]"
  measurement.kind: "FPN IC50"
  value.measured: 13
- binder: "Isovaleryl-DTHFPCI[dK]FK([PEG8′-Palmitoyl])C-NH2 (disulfide 6-11 (inferred)) [Compd ID 21]"
  measurement.kind: "FPN IC50"
  value.measured: 30
- binder: "Isovaleryl-DTHFPCI[dK]FK([PEG12-Palmitoyl])C-NH2 (cysteine pairing not given here) [Compd ID 68]"
  measurement.kind: "FPN IC50"
  value.measured: 12
- binder: "Isovaleryl-DTH[Dip][Npc]CI[dK]FK([PEG12-Palmitoyl])KC-NH2 (disulfide 6-12 (inferred)) [Compd ID 109]"
  measurement.kind: "FPN IC50"
  value.measured: 2
- binder: "DTHXPXIKFKXC (Isovaleric acid-DTH-[Dpa]-P-[Hcy]-I-[(D)Lys]-F-[Lys(Peg11-Palm)]-[Dap]-C-NH2) [Compd ID 141]"
  measurement.kind: "FPN IC50"
  value.measured: 26.5
- binder: "DTHXPCIKXKKC (Isovaleric acid-D-T-H-[Dpa]-P-C-I-[(D)Lys]-[b-homoPhe]-Lys[PEG11-Palm]-[(D)Lys]-[Cys]-NH2) [Compd ID 105]"
  measurement.kind: "FPN IC50"
  value.measured: 31

a: Isovaleryl-DTHFPCI[dK]FK([PEG12-Palmitoyl])CK-NH2 (disulfide 6-11 (inferred)) [Compd ID 144]
b: Isovaleryl-DTHFPCI[dK]FK([PEG12-Palmitoyl])PRC-NH2 (disulfide 6-13 (inferred)) [Compd ID 71]
c: DTHXPCIKFKKC (Isovaleric Acid-D-T-H-[Dpa]-(D)Pro-C-I-(D)Lys-F-[Lys_Peg11_Palm]-(D)Lys-C-NH2) [Compd ID 167]
q: Provide the items ranked by increasing FPN IC50. Sort and list the labels as requested.
a: b, a, c
